Where do these numbers come from? They come from patent US12404279B2.

Counter-ions that a name gives are not always drawn.
Measured IC50 (full-length USP7 (Homo sapiens (Human)))

Compound	IC50
Cc1nc(C#N)cc(-c2ccnc3cc(CN4C(=O)C5C(C4=O)C5(C)C)sc23)c1C(=O)N1CCNC[C@@H]1C (stereo partly shown) [Example 5, 2,2,2-trifluoroacetate]	< 500 nM
Cc1nc(C(F)(F)F)cc(-c2ccnc3cc(CN4C(=O)C5C(C4=O)C5(C)C)sc23)c1CC1CNCCO1 (racemic) [Example 91, 2,2,2-trifluoroacetate]	< 500 nM
Cc1nc(C(F)(F)F)cc(-c2ccnc3cc(CN4C(=O)C5C(C4=O)C5(C)C)sc23)c1NC(=O)C(F)(F)F (stereo not shown) [Example 62, 2,2,2-trifluoroacetate]	1000 to 10000 nM
Cc1nc(C(F)(F)F)cc(-c2ccnc3cc(CN4C(=O)C5C(C4=O)C5(C)C)sc23)c1O[C@H]1CCCNC1 (stereo partly shown) [Example 23, 2,2,2-trifluoroacetate]	< 500 nM
Cc1cc(C(F)(F)F)nc(-c2ccnc3cc(CN4C(=O)C5C(C4=O)C5(C)C)sc23)c1C(=O)N1CC2CCC1CN2 (stereo not shown) [Example 156, hydrochloride]	< 500 nM
Cc1cc(C(F)(F)F)nc(-c2ccnc3cc(CN4C(=O)C5C(C4=O)C5(C)C)sc23)c1C(=O)N1C[C@H]2CCN[C@H]2C1 (stereo partly shown) [Example 108, dihydrochloride]	< 500 nM
Cc1cc(C#N)nc(-c2ccnc3cc(CN4C(=O)C5C(C4=O)C5(C)C)sc23)c1C(=O)N1CCC(F)(F)C1 (stereo not shown) [Example 59, hydrochloride]	< 500 nM
Cc1nc(C#N)cc(-c2ccnc3cc(CN4C(=O)C5C(C4=O)C5(C)C)sc23)c1C(=O)N1CC[C@@H](O)C1 (stereo partly shown) [Example 12, 2,2,2-trifluoroacetate]	500 to 1000 nM
Cc1cc(C#N)nc(-c2ccnc3cc(CN4C(=O)C5C(C4=O)C5(C)C)sc23)c1NC1CCNC1 (stereo not shown) [Example 20, dihydrochloride]	< 500 nM
Cc1c([N+](=O)[O-])cc(-c2ccnc3cc(CN4C(=O)C5C(C4=O)C5(C)C)sc23)n1C[C@H]1CNCCO1 (stereo partly shown) [Example 167, hydrochloride]	< 500 nM
Cc1cc(Cl)nc(-c2ccnc3cc(CN4C(=O)C5C(C4=O)C5(C)C)sc23)c1O[C@H]1CCCNC1 (single isomer, unassigned) [Example 4, hydrochloride]	< 500 nM
Cc1cc(C#N)nc(-c2ccnc3cc(CN4C(=O)C5C(C4=O)C5(C)C)sc23)c1C(=O)N1CC(F)(F)C1 (stereo not shown) [Example 51, hydrochloride]	< 500 nM
Cc1nc(C(F)(F)F)cc(-c2ccnc3cc(CN4C(=O)C5C(C4=O)C5(C)C)sc23)c1NC(=O)C1CC(F)(F)C1 (stereo not shown) [Example 86, hydrochloride]	> 10000 nM
Cc1cc(C#N)nc(-c2ccnc3cc(CN4C(=O)C5C(C4=O)C5(C)C)sc23)c1C(=O)N1CCNCC1 (stereo not shown) [Example 55, hydrochloride]	< 500 nM
Cc1cc(C(F)(F)F)nc(-c2ccnc3cc(CN4C(=O)C5C(C4=O)C5(C)C)sc23)c1C(=O)N1CCC(CN)C1 (racemic) [Example 139, trihydrochloride]	< 500 nM
CNCC(=O)Nc1c(-c2ccnc3cc(CN4C(=O)C5C(C4=O)C5(C)C)sc23)cc(C(F)(F)F)nc1C (stereo not shown) [Example 60, 2,2,2-trifluoroacetate]	> 10000 nM
Cc1nc(C#N)cc(-c2ccnc3cc(CN4C(=O)C5C(C4=O)C5(C)C)sc23)c1C(=O)N1CC[C@H](N)C1 (stereo partly shown) [Example 15, 2,2,2-trifluoroacetate]	< 500 nM
Cc1cc(C(F)(F)F)nc(-c2ccnc3cc(CN4C(=O)C5C(C4=O)C5(C)C)sc23)c1C[C@H]1CN(C)CCO1 (stereo partly shown) [Example 97, dihydrochloride]	1000 to 10000 nM
CC1(C)C2C(=O)N(Cc3cc4nccc(-c5cc(C(F)(F)F)cnc5C[C@@H]5CNCCO5)c4s3)C(=O)C21 (stereo partly shown) [Example 99, 2,2,2-trifluoroacetate]	< 500 nM
CN[C@H]1CCN(C(=O)c2c(C)cc(C(F)(F)F)nc2-c2ccnc3cc(CN4C(=O)C5C(C4=O)C5(C)C)sc23)C1.Cl.Cl (stereo partly shown) [Example 77, dihydrochloride]	< 500 nM
CN[C@H]1CCN(Cc2c(C)cc(C(F)(F)F)nc2-c2ccnc3cc(CN4C(=O)C5C(C4=O)C5(C)C)sc23)C1 (stereo partly shown) [Example 160, hydrochloride]	< 500 nM
Cc1cc(C(F)(F)F)nc(-c2ccnc3cc(CN4C(=O)C5C(C4=O)C5(C)C)sc23)c1C(=O)NC1CNC1 (stereo not shown) [Example 70, dihydrochloride]	500 to 1000 nM
